The origin of these recorded values is paper PMC7764330.

Study system: β-site amyloid precursor protein cleaving enzyme 1 (BACE1) (Homo sapiens)
Construct: purchased Pan Vera Co. (Madison, WI, USA)
Procedure text: BACE1 (β-secretase) FRET enzyme assay
Type: biochemical
Experimental context: isolated compounds; mean ± SD, n = 3; read-out: IC50 BACE1
pIC50: −log10 of the molar value.
A collection of compounds and their measured pIC50

{"columns": ["Compound", "Study system", "pIC50"],
 "data": [
  ["COC(=O)C1=CO[C@@H](O[C@@H]2O[C@H](CO)[C@@H](O)[C@H](O)[C@H]2O)[C@@H]2C(CO)=C[C@H](O)[C@H]12", "β-site amyloid precursor protein cleaving enzyme 1 (BACE1) (Homo sapiens)", "< 3.30"]
]}

Now consider the entry below.
// pIC50 (β-site amyloid precursor protein cleaving enzyme 1 (BACE1) (Homo sapiens)) for COC(=O)C1=CO[C@@H](O[C@@H]2O[C@H](CO)[C@@H](O)[C@H](O)[C@H]2O)[C@@H]2C(CO)=C[C@@H](O)[C@H]12 [Compound 8, scandoside methyl ester] = < 3.30

* * *

Study system: acetylcholinesterase (AChE) (Electrophorus electricus, UniProt O42275)
Construct: purchased Sigma-Aldrich Co. (St. Louis, MO, USA)
Sequence (O42275 24-633): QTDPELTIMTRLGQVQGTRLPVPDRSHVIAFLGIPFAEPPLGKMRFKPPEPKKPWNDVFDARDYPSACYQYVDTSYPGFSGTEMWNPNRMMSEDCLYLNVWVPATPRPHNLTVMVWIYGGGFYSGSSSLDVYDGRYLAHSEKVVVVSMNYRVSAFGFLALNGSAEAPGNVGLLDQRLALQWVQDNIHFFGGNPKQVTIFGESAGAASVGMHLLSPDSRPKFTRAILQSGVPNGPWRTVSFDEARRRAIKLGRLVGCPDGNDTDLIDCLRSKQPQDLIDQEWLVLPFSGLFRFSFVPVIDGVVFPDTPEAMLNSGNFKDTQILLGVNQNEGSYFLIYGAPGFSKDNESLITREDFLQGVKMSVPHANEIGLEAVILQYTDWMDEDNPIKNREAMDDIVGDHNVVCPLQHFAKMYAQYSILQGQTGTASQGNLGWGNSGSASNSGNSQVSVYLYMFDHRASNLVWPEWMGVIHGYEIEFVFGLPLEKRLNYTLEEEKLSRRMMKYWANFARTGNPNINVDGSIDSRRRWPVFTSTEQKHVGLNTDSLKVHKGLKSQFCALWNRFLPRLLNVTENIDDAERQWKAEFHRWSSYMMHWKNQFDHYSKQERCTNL
Procedure text: biochemical
Type: biochemical
Experimental context: IC50 AChE, isolated compounds; mean ± SD, n = 3
Measured IC50 of individual entries
Please give a number only; it is taken to be in µM.

Some entries whose results are on file:
{"columns": ["Compound", "Value reported"],
 "data": [
  ["CC(=O)OCC1=C[C@@H]2OC(=O)C3=CO[C@@H](O[C@@H]4O[C@H](CO)[C@@H](O)[C@H](O)[C@H]4O)[C@H]1[C@@H]32 [Compound 5, asperuloside]", 259],
  ["CC(=O)OCC1=C[C@H](O)[C@@H]2C(C(=O)O)=CO[C@@H](O[C@@H]3O[C@H](CO)[C@@H](O)[C@H](O)[C@H]3O)[C@H]12", 68.3]
]}

Turning now to a further compound:
# IC50 of COc1ccc2cc3[n+](cc2c1OC)CCc1cc2c(cc1-3)OCO2 [Berberine, berberine, reference compound] = 0.31

* * *

Study system: acetylcholinesterase (AChE) (Electrophorus electricus, UniProt O42275)
Construct: purchased Sigma-Aldrich Co. (St. Louis, MO, USA)
Procedure text: biochemical
Type: biochemical
Experimental context: isolated compounds; mean ± SD, n = 3; read-out: IC50 AChE
Endpoint: pIC50
Remember the convention: pIC50 equals -log10 of concentration in molar.

Here are 6 compounds together with their reported answers.
{"columns": ["Compound", "pIC50"],
 "data": [
  ["COc1cc(/C=C/C(=O)OC[C@H]2O[C@@H](O[C@H]3[C@H](Oc4c(-c5ccc(O)c(O)c5)oc5cc(O)cc(O)c5c4=O)O[C@H](CO)[C@@H](O)[C@@H]3O)[C@H](O)[C@@H](O)[C@@H]2O)ccc1O", 4.34],
  ["COC(=O)C1=CO[C@@H](O[C@@H]2O[C@H](CO)[C@@H](O)[C@H](O)[C@H]2O)[C@@H]2C(CO)=C[C@H](O)[C@H]12", 3.76],
  ["COC(=O)C1=CO[C@@H](O[C@@H]2O[C@H](CO)[C@@H](O)[C@H](O)[C@H]2O)[C@@H]2C(CO)=C[C@@H](O)[C@H]12 [Compound 8, scandoside methyl ester]", 3.80],
  ["COC(=O)C1=CO[C@@H](O[C@@H]2O[C@H](CO)[C@@H](O)[C@H](O)[C@H]2O)[C@@H]2C(CO)=C[C@@H](OC(=O)/C=C/c3ccc(O)c(OC)c3)[C@H]12 [Compound 3, E-6-O-feruloyl scandoside methyl ester]", 4.01],
  ["COC(=O)C1=CO[C@@H](O[C@@H]2O[C@H](CO)[C@@H](O)[C@H](O)[C@H]2O)[C@@H]2C(CO)=C[C@H](OC)[C@H]12", 4.09],
  ["COC(=O)C1=CO[C@@H](O[C@@H]2O[C@H](CO)[C@@H](O)[C@H](O)[C@H]2O)[C@@H]2C(CO)=C[C@@H](OC(=O)/C=C/c3ccc(O)cc3)[C@H]12 [Compound 1]", 3.52]
]}

# input for lookup
# lookup: COC(=O)C1=CO[C@@H](O[C@@H]2O[C@H](CO)[C@@H](O)[C@H](O)[C@H]2O)[C@@H]2C(CO)=C[C@@H](OC(=O)/C=C/c3ccc(O)cc3)[C@H]12 [Compound 2, 6-O-p-coumaroyl scandoside methyl ester] on acetylcholinesterase (AChE) (Electrophorus electricus, UniProt O42275), pIC50 = 3.53

* * *

pIC50 overview
Study system: β-site amyloid precursor protein cleaving enzyme 1 (BACE1) (Homo sapiens, UniProt P56817)
Construct: purchased Pan Vera Co. (Madison, WI, USA)
Sequence (P56817 22-501 limits assumed): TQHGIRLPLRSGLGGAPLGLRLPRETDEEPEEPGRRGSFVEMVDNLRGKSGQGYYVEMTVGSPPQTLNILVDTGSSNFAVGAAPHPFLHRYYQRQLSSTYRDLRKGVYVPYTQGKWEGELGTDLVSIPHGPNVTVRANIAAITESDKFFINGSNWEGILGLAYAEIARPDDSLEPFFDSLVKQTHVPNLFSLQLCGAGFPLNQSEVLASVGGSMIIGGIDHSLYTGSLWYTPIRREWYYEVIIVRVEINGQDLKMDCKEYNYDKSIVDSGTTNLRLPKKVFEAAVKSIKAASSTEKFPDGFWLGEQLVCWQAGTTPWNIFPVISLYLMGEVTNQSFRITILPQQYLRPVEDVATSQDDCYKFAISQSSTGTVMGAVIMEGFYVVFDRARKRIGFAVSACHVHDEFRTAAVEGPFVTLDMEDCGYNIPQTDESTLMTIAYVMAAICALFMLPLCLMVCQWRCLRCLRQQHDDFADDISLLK
Procedure text: BACE1 (β-secretase) FRET enzyme assay
Type: biochemical
Experimental context: IC50 BACE1, isolated compounds; mean ± SD, n = 3
Excerpt: Methanol (MeOH), ethanol (EtOH), n-hexane (Hx), dichloromethane (DCM), ethyl acetate (EA), n-butanol (BuOH) (Samchun Pure Chemical, Pyeongtaek, Gyeonggi, Korea) and distilled water were used for extraction, fractionation, and open column chromatography. […] A TECAN Sunrise microplate reader and Infinite F200 pro (Männedorf, Zürich, Switzerland) were used for absorbance and fluorescence, respectively. […]
Recall that pIC50 is obtained by taking minus log10 of the concentration measured in molar.

Record excerpt, results attached:
{"columns": ["Compound", "Value reported"],
 "data": [
  ["COc1cc(/C=C/C(=O)OC[C@H]2O[C@@H](O[C@H]3[C@H](Oc4c(-c5ccc(O)c(O)c5)oc5cc(O)cc(O)c5c4=O)O[C@H](CO)[C@@H](O)[C@@H]3O)[C@H](O)[C@@H](O)[C@@H]2O)ccc1O", 5.35],
  ["COC(=O)C1=CO[C@@H](O[C@@H]2O[C@H](CO)[C@@H](O)[C@H](O)[C@H]2O)[C@@H]2C(CO)=C[C@@H](OC(=O)/C=C/c3ccc(O)cc3)[C@H]12 [Compound 1]", 4.20],
  ["COC(=O)C1=CO[C@@H](O[C@@H]2O[C@H](CO)[C@@H](O)[C@H](O)[C@H]2O)[C@@H]2C(CO)=C[C@@H](OC(=O)/C=C/c3ccc(O)cc3)[C@H]12 [Compound 2, 6-O-p-coumaroyl scandoside methyl ester]", 3.92]
]}

# next compound below
For reference, reported pIC50 for COC(=O)C1=CO[C@@H](O[C@@H]2O[C@H](CO)[C@@H](O)[C@H](O)[C@H]2O)[C@@H]2C(CO)=C[C@@H](OC(=O)/C=C/c3ccc(O)c(OC)c3)[C@H]12 [Compound 3, E-6-O-feruloyl scandoside methyl ester] stands at 3.92
